All figures here come from patent US7705007B2.

target: interaction between p53 and MDM2 proteins (recombinant GST-tagged MDM2 / p53 peptide) (Homo sapiens, UniProt Q00987); assay: HTRF assay of inhibition of the p53-MDM2 interaction (GST-MDM2 binding to biotinylated p53 peptide); conditions: 90 nM biotinylated p53 peptide, 160 ng/mL GST-MDM2, 37° C. 1 h
Sequence (Q00987 whole entry): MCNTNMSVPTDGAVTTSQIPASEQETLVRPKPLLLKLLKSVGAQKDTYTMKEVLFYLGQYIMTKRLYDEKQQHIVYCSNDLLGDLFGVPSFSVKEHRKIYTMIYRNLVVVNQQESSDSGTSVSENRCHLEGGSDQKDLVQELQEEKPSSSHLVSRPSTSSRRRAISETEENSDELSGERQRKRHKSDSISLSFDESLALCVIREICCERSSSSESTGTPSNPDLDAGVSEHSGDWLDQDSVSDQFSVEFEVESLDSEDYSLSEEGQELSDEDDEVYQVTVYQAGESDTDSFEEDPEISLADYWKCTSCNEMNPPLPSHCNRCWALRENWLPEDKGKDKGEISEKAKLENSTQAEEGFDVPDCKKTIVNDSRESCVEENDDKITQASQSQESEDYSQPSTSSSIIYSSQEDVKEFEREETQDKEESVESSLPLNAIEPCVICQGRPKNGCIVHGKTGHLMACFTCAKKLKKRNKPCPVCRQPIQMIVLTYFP
Where a name gives a salt, the structure may show the parent alone.
Would you kindly list pIC50 for each of these molecules?
# pIC50 is unitless: minus log10 of the molar concentration; print number only

Look up pIC50 for this molecule: CCOc1nc(C(F)(F)F)ncc1C1=N[C@@H](c2ccc(Cl)cc2)[C@@H](c2ccc(Cl)cc2)N1C(=O)N1CCN(CCS(C)(=O)=O)CC1 (relative stereo) [Example 6]
5.54

Look up pIC50 for this molecule: CCOc1ccsc1C1=N[C@@H](c2ccc(Cl)cc2)[C@@H](c2ccc(Cl)cc2)N1C(=O)N1CCN(CC(=O)N(CCOC)CCOC)CC1 [Example 36]
7.27

Look up pIC50 for this molecule: CCOc1ccsc1C1=N[C@@H](c2ccc(Cl)cc2)[C@@H](c2ccc(Cl)cc2)N1C(=O)N1CCN(CC(=O)NC(C)(C)C)CC1 [Example 34]
6.96

Look up pIC50 for this molecule: CCOc1nc(C(C)(C)C)ncc1C1=N[C@@H](c2ccc(Cl)cc2)[C@@H](c2ccc(Cl)cc2)N1C(=O)N1CCNC(=O)C1 (relative stereo) [Example 20, hydrochloride]
7.34

Look up pIC50 for this molecule: CCOc1nc(C)ncc1C1=N[C@@H](c2ccc(Cl)cc2)[C@@H](c2ccc(Cl)cc2)N1C(=O)N1CCN(CC(=O)N(C)C)CC1 (relative stereo) [Example 17]
6.17
